System: Ramos B-Cell Line Stimulated with IL-4 (JAK-1 and JAK-3 / Stat-6, CD23)
Assay: Assay for Ramos B-Cell Line Stimulated with IL-4 (CD23 upregulation, FACS)
Assay type: cell-based
Conditions: Homo sapiens, Ramos, human Ramos B cells, compound 1 hour, IL-4 50 units/mL for 20-24 hours, anti-CD23-PE FACS; read-out: Example 2 (IC50)
measurementType: IC50 (nM)

Please review the entries below; each comes with its answer.
{"columns": ["compound", "assaySystem", "measurementType", "readoutUnit", "result"],
 "data": [
  ["Cc1nc(COc2ccc(Nc3nc(Nc4ccc(C(N)=O)cc4)ncc3F)cc2)no1", "Ramos B-Cell Line Stimulated with IL-4 (JAK-1 and JAK-3 / Stat-6, CD23)", "IC50", "nM", 91.4],
  ["NC(=O)c1ccc(Nc2ncc(F)c(Nc3cccc(-c4ncco4)c3)n2)cc1Cl", "Ramos B-Cell Line Stimulated with IL-4 (JAK-1 and JAK-3 / Stat-6, CD23)", "IC50", "nM", 178],
  ["Cc1noc(COc2ccc(Nc3nc(Nc4cccc(C#N)c4)ncc3F)c(C)c2)n1", "Ramos B-Cell Line Stimulated with IL-4 (JAK-1 and JAK-3 / Stat-6, CD23)", "IC50", "nM", 1440]
]}

[I] CNC(=O)c1cc(Nc2ncc(F)c(Nc3cccc(OCC(N)=O)c3)n2)ccc1N1CCN(C)CC1
[II] Cc1cc(Nc2nc(Nc3ccc(C(N)=O)cc3)ncc2F)ccc1OC(C)C#N (stereo not shown)
[III] C#CCOc1ccc(Nc2nc(Nc3ccc(C(N)=S)cc3)ncc2F)cc1
[IV] N#CCc1ccc(Nc2nc(Nc3cccc(C(N)=O)c3)ncc2F)cc1
Input: # rank_down: sort by IC50, max first List the labels, following the order given in the request.
Output: IV, I, III, II
